# Tested on: Aspergillus niger
# Assay summary: Antifungal activity against Aspergillus niger ATCC 4578 after 24 hr by paper disk diffusion method
# Type: functional
# Measurement conditions: ATCC 4578, 24 h
Observed property: MIC (µg/mL)
// units = µg/mL; emit number, no label

Ask | Looking for the measured MIC of CC(=O)Nn1c(S)nnc1-c1ccccc1 , can you help?
Reply | 15

Ask | Please report the recorded MIC for Nn1c(Sc2ccc(Br)cc2)nnc1-c1ccccc1 .
Reply | 10

Ask | Given Nn1c(Sc2ccc(Cl)cc2)nnc1-c1ccccc1 , state its recorded MIC.
Reply | 10

***
Ask | Given CC(=O)N1CCN(c2ccc(OCC3COC(Cn4ccnc4)(c4ccc(Cl)cc4Cl)O3)cc2)CC1 (centres undefined) , state its recorded MIC.
Reply | 5

Ask | What does the data say about its MIC? Entry: Nn1c(S)nnc1-c1ccccc1O
Reply | 12.5

Ask | Please report the recorded MIC for Nn1c(Sc2ccc([N+](=O)[O-])cc2[N+](=O)[O-])nnc1-c1ccccc1 .
Reply | 15

Ask | What measured MIC goes with Nn1c(S)nnc1-c1ccccc1 ?
Reply | 12.5

Ask | Which MIC reading was recorded for the molecule Nn1c(Sc2ccc(C(Cl)(Cl)Cl)cc2)nnc1-c1ccccc1 ?
Reply | 5

Ask | // MIC lookup, key: Nn1c(Sc2ccc(S(=O)(=O)Cl)cc2)nnc1-c1ccccc1
Reply | 15

----------
# System: Pseudomonas fluorescens
# Assay summary: Antibacterial activity against Pseudomonas fluorescens ATCC 3458 after 24 hr by paper disk diffusion method
# Type: functional
# Measurement conditions: ATCC 3458, 24 h
Observed property: MIC
Don't forget the unit after the value.

Solved cases (4 shown):
Ask | # returns recorded MIC (system: Pseudomonas fluorescens) for Nn1c(Sc2ccc(Cl)cc2)nnc1-c1ccccc1
Reply | 10 µg/mL

Ask | Observed MIC on Pseudomonas fluorescens for CO/N=C(\C(=O)N[C@@H]1C(=O)N2C(C(=O)O)=C(CSc3nc(=O)c(O)nn3C)CS[C@H]12)c1csc(N)n1 , please.
Reply | 5 µg/mL

Ask | Lookup: MIC / Pseudomonas fluorescens / Nn1c(Sc2ccc(Br)cc2)nnc1-c1ccccc1
Reply | 10 µg/mL

Ask | Form field - read-out: MIC; system: Pseudomonas fluorescens; submitted item: Nn1c(Sc2ccc(S(=O)(=O)Cl)cc2)nnc1-c1ccccc1
Reply | 15 µg/mL

New cases:
Ask | Provide the documented MIC with Pseudomonas fluorescens as the system for Nn1c(Sc2ccc(C(Cl)(Cl)Cl)cc2)nnc1-c1ccccc1
Reply | 5 µg/mL

Ask | Form field: MIC recorded for Nn1c(S)nnc1-c1ccccc1 with Pseudomonas fluorescens (enter value)
Reply | 12.5 µg/mL

Ask | # value lookup — system Pseudomonas fluorescens, readout MIC, item Nn1c(S)nnc1-c1ccccc1O
Reply | 12.5 µg/mL

Ask | API: value(readout= MIC, system= Pseudomonas fluorescens, query= CC(=O)Nn1c(S)nnc1-c1ccccc1 )
Reply | 15 µg/mL

Ask | Could you share what MIC was measured for Nn1c(Sc2ccc([N+](=O)[O-])cc2[N+](=O)[O-])nnc1-c1ccccc1 , tested on Pseudomonas fluorescens?
Reply | 15 µg/mL

----------
List of MIC values.
# Test system: Trichoderma
# Assay summary: Antifungal activity against Trichoderma sp. ATCC 5248 after 24 hr by paper disk diffusion method
# Assay type: functional
# Measurement conditions: ATCC 5248, 24 h
Numbers only here, please. The scale is µg/mL.

Ask | Requested read-out MIC, target or system Trichoderma, entry Nn1c(Sc2ccc([N+](=O)[O-])cc2[N+](=O)[O-])nnc1-c1ccccc1
Reply | 15

Ask | For the record CC(=O)Nn1c(S)nnc1-c1ccccc1 , what value of MIC is listed for Trichoderma?
Reply | 15

Ask | Request: MIC, test system Trichoderma, entry Nn1c(Sc2ccc(S(=O)(=O)Cl)cc2)nnc1-c1ccccc1
Reply | 15

Ask | Lab note: need MIC for Nn1c(S)nnc1-c1ccccc1O on Trichoderma, anyone have it?
Reply | 12.5

Ask | Hi! What's the reported MIC for Nn1c(Sc2ccc(Br)cc2)nnc1-c1ccccc1 on Trichoderma?
Reply | 10

Ask | Quick check: MIC on Trichoderma, item Nn1c(Sc2ccc(Cl)cc2)nnc1-c1ccccc1 ?
Reply | 10

Ask | Hello, I am looking for reported MIC with Trichoderma for Nn1c(S)nnc1-c1ccccc1 . Could you help?
Reply | 12.5

Ask | Given the entry Nn1c(Sc2ccc(C(Cl)(Cl)Cl)cc2)nnc1-c1ccccc1 , what MIC was observed with Trichoderma?
Reply | 5

Next:
Ask | For Trichoderma, provide MIC of CC(=O)N1CCN(c2ccc(OCC3COC(Cn4ccnc4)(c4ccc(Cl)cc4Cl)O3)cc2)CC1 (centres undefined) please.
Reply | 5

Data origin: ChEMBL document CHEMBL3045378
